Species: Rattus norvegicus
Test: The distribution of the 131 I-labeled compound at 30 min was evaluated in rat heart as Percent of injected dose in the total organ
Assay type: ADME, organism-based
Conditions: in vivo, 0.5 h
Please respond with reported Dose for every item in the list.
Give a bare numeral; the unit % is implied.

Given item COc1cc(CC(C)NCCCN(C)C)c(OC)cc1I (stereo not drawn) , the value recorded as its Dose is 1.6

In plain terms, COc1cc(CC(C)N(C)C)c(OC)cc1I (stereo not drawn) has a documented Dose of 0.28

Sure, the documented Dose for CCCCCCNC(C)Cc1cc(OC)c(I)cc1OC (stereo not drawn) is 0.25

For COc1cc(CC(C)NCC2CC2)c(OC)cc1I (stereo not drawn) the compound record lists Dose as 0.23

Entry under test: CNC(C)Cc1cc(OC)c(I)cc1OC (stereo not drawn) . Its Dose was 0.32

Recorded Dose (compound COc1cc(CC(C)NCC#N)c(OC)cc1I (stereo not drawn) ): 0.3

Dose for COc1cc(CC(C)NCc2ccccc2)c(OC)cc1I (stereo not drawn) is 0.34

So for COc1cc(CC(C)NN)c(OC)cc1I (stereo not drawn) , the logged Dose turned out to be 0.15

The compound listed as COc1cc(CC(C)N)c(OC)cc1I (stereo not drawn) has a reported Dose of 0.32

The compound COc1cc(CC(C)NC(C)C)c(OC)cc1I (stereo not drawn) showed Dose equal to 0.29

Lookup result for COc1cc(CC(C)N(C)C(C)C)c(OC)cc1I (stereo not drawn) ; measured Dose: 0.24

Query CCN(CC)C(C)Cc1cc(OC)c(I)cc1OC (stereo not drawn) yields Dose of 0.2

Measured Dose of COc1cc(CC(C)N(C)Cc2ccccc2)c(OC)cc1I (stereo not drawn) : 0.21

* * *

Organism: Rattus norvegicus
Experiment: Ratio of distribution of the [131I]-labeled compound at 5 min in rat kidney over uptake in blood
Assay type: ADME, organism-based
Settings: other tissue
metric: Ratio
// no unit, no text: just the number

Briefly, Ratio measured for COc1cc(CC(C)N(C)C(C)C)c(OC)cc1I (stereo not given) : 1.1

For record COc1cc(CC(C)NCC2CC2)c(OC)cc1I (stereo not given) the listed Ratio is 9.2

// CCCCCCCCCCCCNC(C)Cc1cc(OC)c(I)cc1OC (stereo not given) : Ratio value = 1.2

Record summary for COc1cc(CC(C)N)c(OC)cc1I (stereo not given) : reported Ratio = 17

Per the records, this compound ( COc1cc(CC(C)NO)c(OC)cc1I (stereo not given) ) has Ratio equal to 6.8

// recorded Ratio for COc1cc(CC(C)N(C)Cc2ccccc2)c(OC)cc1I (stereo not given) : 5.3

Entry under test: COc1cc(CC(C)NCC#N)c(OC)cc1I (stereo not given) . Its Ratio was 15

For reference, reported Ratio for COc1cc(CC(C)NCCCN(C)C)c(OC)cc1I (stereo not given) stands at 16

Ratio for COc1cc(CC(C)N(C)C)c(OC)cc1I (stereo not given) is 5.5

Entry COc1cc(CC(C)NN)c(OC)cc1I (stereo not given) — recorded Ratio = 3.3

* * *

Species: Rattus norvegicus
Test: The distribution of the 131 I-labeled compound at 30 min was evaluated in rat brain as Percent of injected dose in the total organ
Assay type: ADME, organism-based
Conditions: in vivo, 0.5 h
# note: exactly 0.8% is not below, so it is false (0); use true (1) for Dose strictly under it

IN: Below 0.8% on Dose? Entry COc1cc(CC(C)NCC2CC2)c(OC)cc1I (stereo not drawn)
OUT: true (1)

IN: # strict comparison: is reported Dose < 0.8%? input = COc1cc(CC(C)N)c(OC)cc1I (stereo not drawn)
OUT: true (1)

IN: I'd appreciate it if you could check whether COc1cc(CC(C)N(C)C)c(OC)cc1I (stereo not drawn) has Dose smaller than 0.8%.
OUT: false (0)

IN: Lab log: compare recorded Dose with 0.8%; is it strictly lower for COc1cc(CC(C)N(C)C(C)C)c(OC)cc1I (stereo not drawn) ?
OUT: true (1)

IN: Decide: Dose of COc1cc(CC(C)NCCCN(C)C)c(OC)cc1I (stereo not drawn) strictly below 0.8%?
OUT: true (1)

IN: Determine if COc1cc(CC(C)N(C)Cc2ccccc2)c(OC)cc1I (stereo not drawn) shows Dose strictly lower than 0.8%.
OUT: true (1)

IN: Dear reviewer, please state whether COc1cc(CC(C)NN)c(OC)cc1I (stereo not drawn) has Dose strictly beneath 0.8%.
OUT: true (1)

IN: Identify whether the compound CCN(CC)C(C)Cc1cc(OC)c(I)cc1OC (stereo not drawn) records Dose below 0.8%.
OUT: true (1)

IN: Input COc1cc(CC(C)NCc2ccccc2)c(OC)cc1I (stereo not drawn) ; condition: Dose strictly below 0.8%. Does it hold?
OUT: false (0)

IN: Given the entry CCCCCCNC(C)Cc1cc(OC)c(I)cc1OC (stereo not drawn) , would its reported Dose be below 0.8%?
OUT: false (0)

IN: For this compound, is Dose lower than 0.8%? COc1cc(CC(C)NCC#N)c(OC)cc1I (stereo not drawn)
OUT: true (1)

IN: Dose strictly < 0.8% for this compound? COc1cc(CC(C)NC(C)C)c(OC)cc1I (stereo not drawn)
OUT: true (1)

IN: Does CNC(C)Cc1cc(OC)c(I)cc1OC (stereo not drawn) have Dose strictly under 0.8%?
OUT: false (0)

* * *

Species on record: Rattus norvegicus
Test: The distribution of the 131 I-labeled compound at 30 min was evaluated in rat liver as Percent of injected dose per gram in the organ
Type: ADME, organism-based
Settings: in vivo, 0.5 h
metric: Dose (%)
Use % as the unit, but write only the number.

Dose recorded for this molecule, COc1cc(CC(C)NC(C)C)c(OC)cc1I (stereo unspecified) , is 1.2

So for CCN(CC)C(C)Cc1cc(OC)c(I)cc1OC (stereo unspecified) , the logged Dose turned out to be 0.32

Entry under test: CCCCCCNC(C)Cc1cc(OC)c(I)cc1OC (stereo unspecified) . Its Dose was 1.6

# Dose of COc1cc(CC(C)N(C)C(C)C)c(OC)cc1I (stereo unspecified) = 0.32

The molecule identified as COc1cc(CC(C)NCC#N)c(OC)cc1I (stereo unspecified) registered its Dose at 1.2

The recorded Dose for COc1cc(CC(C)NN)c(OC)cc1I (stereo unspecified) is 0.29

* * *

Species on record: Rattus norvegicus
Test: The distribution of the 131 I-labeled compound at 30 min was evaluated in rat liver as Percent of injected dose in the total organ
Type: ADME, organism-based
Details: in vivo, 0.5 h
metric: Dose (%)
Write the number in % without appending the unit.

// CCCCCCNC(C)Cc1cc(OC)c(I)cc1OC (stereo not drawn) : Dose value = 9.4

Per the records, this compound ( COc1cc(CC(C)NCC#N)c(OC)cc1I (stereo not drawn) ) has Dose equal to 9.5

So, COc1cc(CC(C)NCc2ccccc2)c(OC)cc1I (stereo not drawn) ? Its Dose was 5.4

Dose reading for CNC(C)Cc1cc(OC)c(I)cc1OC (stereo not drawn) : 11

Dose reading for COc1cc(CC(C)NCC2CC2)c(OC)cc1I (stereo not drawn) : 8.9

Dose reported for this compound COc1cc(CC(C)N(C)C(C)C)c(OC)cc1I (stereo not drawn) : 4.6

Entry COc1cc(CC(C)N(C)C)c(OC)cc1I (stereo not drawn) — recorded Dose = 12

GET /value?item= COc1cc(CC(C)N)c(OC)cc1I (stereo not drawn) &field=Dose returns 10

For reference, reported Dose for COc1cc(CC(C)N(C)Cc2ccccc2)c(OC)cc1I (stereo not drawn) stands at 7.6

compound CCN(CC)C(C)Cc1cc(OC)c(I)cc1OC (stereo not drawn) , Dose observed: 4.3

Record COc1cc(CC(C)NCCCN(C)C)c(OC)cc1I (stereo not drawn) , field Dose: 7.7

For COc1cc(CC(C)NN)c(OC)cc1I (stereo not drawn) the compound record lists Dose as 5

COc1cc(CC(C)NC(C)C)c(OC)cc1I (stereo not drawn) yielded Dose of 6

* * *

Species: Rattus norvegicus
Assay: The distribution of the 131 I-labeled compound at 30 min was evaluated in rat blood as Percent of injected dose per gram in the organ
Assay type: ADME, organism-based
Details: in vivo, 0.5 h
Mark TRUE for Dose under 0.2%, FALSE if at or over.

IN: Check if Dose falls below 0.2% for CCN(CC)C(C)Cc1cc(OC)c(I)cc1OC (stereo not drawn) .
OUT: TRUE

IN: Determine if COc1cc(CC(C)NCC2CC2)c(OC)cc1I (stereo not drawn) shows Dose strictly lower than 0.2%.
OUT: TRUE

IN: Regarding CNC(C)Cc1cc(OC)c(I)cc1OC (stereo not drawn) , kindly confirm whether its Dose is beneath 0.2%.
OUT: FALSE

IN: Hello, is Dose of the following molecule strictly smaller than 0.2%? COc1cc(CC(C)NCC#N)c(OC)cc1I (stereo not drawn)
OUT: TRUE

IN: In plain terms, does COc1cc(CC(C)NN)c(OC)cc1I (stereo not drawn) come in under 0.2% for Dose?
OUT: TRUE

IN: Please determine if CCCCCCNC(C)Cc1cc(OC)c(I)cc1OC (stereo not drawn) is below 0.2% in terms of Dose.
OUT: TRUE

IN: Given COc1cc(CC(C)NCCCN(C)C)c(OC)cc1I (stereo not drawn) , is recorded Dose strictly lower than 0.2%?
OUT: TRUE

IN: API: query returns whether the molecule falls strictly under 0.2% in Dose. Query: COc1cc(CC(C)N(C)C)c(OC)cc1I (stereo not drawn)
OUT: TRUE

IN: Below 0.2% on Dose? Entry COc1cc(CC(C)NC(C)C)c(OC)cc1I (stereo not drawn)
OUT: FALSE

IN: Quick check: does COc1cc(CC(C)N(C)C(C)C)c(OC)cc1I (stereo not drawn) have Dose under 0.2%?
OUT: FALSE

IN: # strict comparison: is reported Dose < 0.2%? input = COc1cc(CC(C)N)c(OC)cc1I (stereo not drawn)
OUT: TRUE

IN: Hello, is Dose of the following molecule strictly smaller than 0.2%? COc1cc(CC(C)N(C)Cc2ccccc2)c(OC)cc1I (stereo not drawn)
OUT: TRUE

This collection of values is drawn from ChEMBL document CHEMBL1122702.
